Cited source for all entries: ChEMBL document CHEMBL1121837

Assign MAC to each entry below.
System: Schistosoma mansoni
Experiment: In vitro antischistosomal activity, minimum active concentration to cause severe damage or death of worms at 96 hr against Schistosoma mansoni
Format: functional

Entry `Cc1cc(S)n2ncc(-c3ccccc3)c2n1` , tested on Schistosoma mansoni, has a reported MAC of 1 µg/mL

Entry `CCCn1ccc(=O)n2nc(-c3ccccc3)cc12` , tested on Schistosoma mansoni, has a reported MAC of 100 µg/mL

Entry `Sc1ccnc2c(-c3ccccc3)cnn12` , tested on Schistosoma mansoni, has a reported MAC of 1 µg/mL

Entry `Cc1cccc(-c2cnn3c(O)cc(C)nc23)c1` , tested on Schistosoma mansoni, has a reported MAC of 100 µg/mL

Entry `CCn1ccc(=O)n2nccc12` , tested on Schistosoma mansoni, has a reported MAC of >100 µg/mL

Entry `Sc1cc(-c2ccccc2)nc2cc(-c3ccccc3)nn12` , tested on Schistosoma mansoni, has a reported MAC of 1 µg/mL

Entry `COc1cc(-c2cc3nc(-c4ccccc4)cc(O)n3n2)cc(OC)c1OC` , tested on Schistosoma mansoni, has a reported MAC of >100 µg/mL

Entry `Cc1cc(O)n2ncc(-c3ccccc3)c2n1` , tested on Schistosoma mansoni, has a reported MAC of 100 µg/mL

Entry `Sc1cc(-c2ccccc2)nc2ccnn12` , tested on Schistosoma mansoni, has a reported MAC of 1 µg/mL

Entry `Cc1cc(S)n2nccc2n1` , tested on Schistosoma mansoni, has a reported MAC of 3.2 µg/mL

Entry `Cn1c(-c2ccccc2)cc(=O)n2nc(-c3ccccc3)cc12` , tested on Schistosoma mansoni, has a reported MAC of 100 µg/mL

Entry `Cc1cccc(-c2cnn3c(O)ccnc23)c1` , tested on Schistosoma mansoni, has a reported MAC of 100 µg/mL
